These measurements were taken from patent EP0674651B1.

Target: human type 2 5α-reductase (Homo sapiens)
Sequence (P31213 1-254): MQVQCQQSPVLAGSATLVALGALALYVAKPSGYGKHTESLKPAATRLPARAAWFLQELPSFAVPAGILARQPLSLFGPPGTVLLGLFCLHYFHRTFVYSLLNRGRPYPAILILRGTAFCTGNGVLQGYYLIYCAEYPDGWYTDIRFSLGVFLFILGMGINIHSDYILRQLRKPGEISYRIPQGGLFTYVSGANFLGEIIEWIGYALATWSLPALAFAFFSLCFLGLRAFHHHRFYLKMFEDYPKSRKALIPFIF
Experiment: 5α-reductase in vitro inhibitory activity, human type 2
measured metric: IC50

IC50 for `CC(C)(C)c1ccc(C(F)(F)F)cc1NC(=O)[C@H]1CC[C@H]2[C@@H]3CNC4=CC(=O)CC[C@]4(C)[C@H]3CC[C@]12C` ? < 10 nM

IC50 for `CC1=C2NC[C@H]3[C@@H]4CC[C@H](C(=O)NC5(c6ccc(Cl)cc6)CCCC5)[C@@]4(C)CC[C@@H]3[C@@]2(C)CCC1=O` ? < 10 nM

IC50 for `C[C@]12CC[C@H]3[C@@H](CNC4=CC(=O)CC[C@@]43C)[C@@H]1CC[C@@H]2C(=O)NNc1ccccc1` ? < 10 nM

IC50 for CCC1(CC)CC1(NC(=O)[C@H]1CC[C@H]2[C@@H]3CNC4=CC(=O)CC[C@]4(C)[C@H]3CC[C@]12C)c1ccc(C(F)(F)F)cc1 (stereo partly shown) ? < 10 nM

IC50 for `C[C@]12CC[C@H]3[C@@H](CNC4=CC(=O)CC[C@@]43C)[C@@H]1CC[C@@H]2C(=O)Nc1cc(C(F)(F)F)ccc1C(F)(F)F` ? < 10 nM

IC50 for `Cc1cc(C)c(NC(=O)[C@H]2CC[C@H]3[C@@H]4CNC5=CC(=O)CC[C@]5(C)[C@H]4CC[C@]23C)c(C)c1` ? < 10 nM

IC50 for `C[C@]12CC[C@H]3[C@@H](CNC4=CC(=O)CC[C@@]43C)[C@@H]1CC[C@@H]2C(=O)NC1(c2ccc3c(c2)OCO3)CCCCC1` ? < 10 nM

IC50 for CC(C)(C)c1ccc(C(NC(=O)[C@H]2CC[C@H]3[C@@H]4CNC5=CC(=O)CC[C@]5(C)[C@H]4CC[C@]23C)C(C)(C)C)cc1 (stereo partly shown) ? < 10 nM

IC50 for `C[C@]12CC[C@H]3[C@@H](CNC4=CC(=O)CC[C@@]43C)[C@@H]1CC[C@@H]2C(=O)NCc1ccc(C(F)(F)F)cc1` ? < 10 nM

IC50 for `CC1=C2NC[C@H]3[C@@H]4CC[C@H](C(=O)Nc5cc(C(C)(C)C)ccc5C(C)(C)C)[C@@]4(C)CC[C@@H]3[C@@]2(C)CCC1=O` ? < 10 nM

IC50 for `C[C@]12CC[C@H]3[C@@H](CNC4=CC(=O)CC[C@@]43C)[C@@H]1CC[C@@H]2C(=O)NN(c1ccccc1)c1ccccc1` ? < 10 nM

IC50 for `CC(C)(C)c1ccc(NC(=O)[C@H]2CC[C@H]3[C@@H]4CNC5=CC(=O)CC[C@]5(C)[C@H]4CC[C@]23C)c(Br)c1` ? < 10 nM

IC50 for `CC(C)c1cc(C(C)C)c(C(=O)[C@H]2CC[C@H]3[C@@H]4CNC5=CC(=O)CC[C@]5(C)[C@H]4CC[C@]23C)c(C(C)C)c1` ? 10 to 100 nM

IC50 for `C[C@]12CC[C@H]3[C@@H](CNC4=CC(=O)CC[C@@]43C)[C@@H]1CC[C@@H]2C(=O)Nc1cc(C(F)(F)F)ccc1F` ? < 10 nM

IC50 for `COc1ccc(C2(NC(=O)[C@H]3CC[C@H]4[C@@H]5CNC6=CC(=O)CC[C@]6(C)[C@H]5CC[C@]34C)CCCC2)cc1` ? < 10 nM

IC50 for `C[C@]12CC[C@H]3[C@@H](CNC4=CC(=O)CC[C@@]43C)[C@@H]1CC[C@@H]2COC(=O)Oc1ccccc1` ? < 10 nM

IC50 for `CC(=O)NC[C@H]1CC[C@H]2[C@@H]3CNC4=CC(=O)CC[C@]4(C)[C@H]3CC[C@]12C` ? 10 to 100 nM

IC50 for `CC1(C)CC(NC(=O)[C@H]2CC[C@H]3[C@@H]4CNC5=CC(=O)CC[C@]5(C)[C@H]4CC[C@]23C)CC(C)(C)C1` ? 10 to 100 nM

IC50 for `CCc1ccc(Cl)c(CC)c1NC(=O)[C@H]1CC[C@H]2[C@@H]3CNC4=CC(=O)CC[C@]4(C)[C@H]3CC[C@]12C` ? < 10 nM

IC50 for CC(C)(C)C(=O)OCC1CCC2C3CNC4=CC(=O)CCC4(C)C3CCC12C (stereo not shown) ? 10 to 100 nM

IC50 for CC12CCC(=O)C=C1NCC1C2CCC2(C)C(C(=O)Nc3ccc(N4CCOCC4)cc3)CCC12 (stereo not shown) ? 10 to 100 nM

IC50 for CC(C)C(NC(=O)[C@H]1CC[C@H]2[C@@H]3CNC4=CC(=O)CC[C@]4(C)[C@H]3CC[C@]12C)c1ccc(Cl)cc1 (stereo partly shown) ? < 10 nM

IC50 for CC(C)(C)c1ccc(C(C)(C)C)c(NC(=O)C2CCC3C4CNC5=CC(=O)CCC5(C)C4CCC23C)c1 (stereo not shown) ? < 10 nM

IC50 for `C[C@]12CC[C@H]3[C@@H](CNC4=CC(=O)CC[C@@]43C)[C@@H]1CC[C@@H]2C(=O)Nc1c(Cl)cc(Cl)cc1Cl` ? < 10 nM

IC50 for `C[C@]12CC[C@H]3[C@@H](CNC4=CC(=O)CC[C@@]43C)[C@@H]1CC[C@@H]2C(=O)NC1(c2ccc(F)cc2)CCCC1` ? < 10 nM
